- system name: human TLR7 (hTLR7) (Homo sapiens (Human))
- experimental protocol: HEK TLR7 assay (HEK-Blue hTLR7 cells, NF-kB/AP-1 SEAP reporter)
- condition description: HEK-Blue hTLR7 cells, 16 h incubation, SEAP read at 620-655 nm
pEC50: −log10 of the molar value.
Measured pEC50 values are reported for all entries that follow.

>  <compound>
CCCC[C@@H](CCSC)Nc1nc(N)nc(C)c1Cc1cc(C(C)(C)C(=O)O)ccc1OC [Compound 33]

>  <system name>
human TLR7 (hTLR7) (Homo sapiens (Human))

>  <pEC50>
> 7.00

$$$$
>  <compound>
CCCCNc1nc(N)nc(C)c1Cc1cc(Cc2nnn(CC(=O)O)n2)ccc1OC [Compound 5]

>  <system name>
human TLR7 (hTLR7) (Homo sapiens (Human))

>  <pEC50>
5.00 to 6.00

$$$$
>  <compound>
CCCCNc1nc(N)nc(C)c1Cc1cc(C(=O)NCCCC(=O)O)ccc1OC [Compound 25]

>  <system name>
human TLR7 (hTLR7) (Homo sapiens (Human))

>  <pEC50>
6.00 to 7.00

$$$$

Look at this compound and give its reported pEC50. CCCCNc1nc(N)nc(C)c1Cc1cc(Cc2nn[nH]n2)ccc1OC [Compound 3] 6.00 to 7.00

Look up pEC50: CCCCNc1nc(N)nc(CCCO)c1Cc1ccccc1OC [Compound 47] 6.00 to 7.00

Reported pEC50 for CCCC[C@@H](CC(=O)O)Nc1nc(N)nc(CCC(=O)O)c1Cc1cc(Cc2nn[nH]n2)ccc1OC [Compound 46] : what is it? 6.00 to 7.00

I would be grateful if you could share the reported pEC50 for CCCCNc1nc(N)nc(CCC(=O)O)c1Cc1cc(C(C)(C)C(=O)O)ccc1OC [Compound 43] . 5.00 to 6.00

Request the reported pEC50 associated with CCCC[C@@H](CCc1nn[nH]n1)Nc1nc(N)nc(C)c1Cc1ccccc1OC [Compound 36] 6.00 to 7.00

###

- system name: human TLR7 (hTLR7) (Homo sapiens (Human), UniProt Q9NYK1)
- Sequence (Q9NYK1 27-1049): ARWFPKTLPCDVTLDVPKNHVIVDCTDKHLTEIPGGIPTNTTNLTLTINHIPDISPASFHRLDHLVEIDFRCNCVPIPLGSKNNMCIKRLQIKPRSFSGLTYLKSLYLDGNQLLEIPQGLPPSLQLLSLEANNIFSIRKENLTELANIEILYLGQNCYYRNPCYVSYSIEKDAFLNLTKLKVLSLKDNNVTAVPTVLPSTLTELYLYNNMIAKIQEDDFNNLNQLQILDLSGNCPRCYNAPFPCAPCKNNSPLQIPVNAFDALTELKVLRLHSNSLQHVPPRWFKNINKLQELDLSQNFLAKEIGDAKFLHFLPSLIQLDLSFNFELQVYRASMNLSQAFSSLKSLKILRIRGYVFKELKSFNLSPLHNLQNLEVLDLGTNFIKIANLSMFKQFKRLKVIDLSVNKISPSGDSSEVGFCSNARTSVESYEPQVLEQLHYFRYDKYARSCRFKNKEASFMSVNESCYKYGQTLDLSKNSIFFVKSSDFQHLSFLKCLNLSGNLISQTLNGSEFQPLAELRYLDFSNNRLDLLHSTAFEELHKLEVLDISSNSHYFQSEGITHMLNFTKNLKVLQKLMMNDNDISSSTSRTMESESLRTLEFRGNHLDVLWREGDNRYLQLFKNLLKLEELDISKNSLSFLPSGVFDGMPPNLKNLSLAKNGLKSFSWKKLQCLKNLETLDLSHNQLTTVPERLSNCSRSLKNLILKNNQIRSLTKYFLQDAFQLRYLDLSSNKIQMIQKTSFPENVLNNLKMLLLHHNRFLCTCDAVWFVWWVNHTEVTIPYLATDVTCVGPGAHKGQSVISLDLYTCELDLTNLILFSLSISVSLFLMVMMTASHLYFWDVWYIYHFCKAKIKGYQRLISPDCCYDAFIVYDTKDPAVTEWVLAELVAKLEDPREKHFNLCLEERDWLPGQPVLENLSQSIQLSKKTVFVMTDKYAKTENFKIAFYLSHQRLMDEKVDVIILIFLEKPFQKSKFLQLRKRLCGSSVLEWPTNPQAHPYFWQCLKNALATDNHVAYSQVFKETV
- experimental protocol: HEK TLR7 assay (HEK-Blue hTLR7 cells, NF-kB/AP-1 SEAP reporter)
- condition description: HEK-Blue hTLR7 cells, 16 h incubation, SEAP read at 620-655 nm
assay metric: EC50

Take a look at these entries with their results.
>  <compound>
CCCCNc1nc(N)nc(CCC(=O)O)c1Cc1cc(Cc2nn[nH]n2)ccc1OC

>  <EC50>
100 to 1000 nM

$$$$
>  <compound>
CCCCNc1nc(N)nc(C)c1Cc1cc(C2(C(=O)O)CC2)ccc1OC

>  <EC50>
1000 to 10000 nM

$$$$
>  <compound>
CCCCNc1nc(N)nc(C)c1Cc1cc(CP(=O)(O)O)ccc1OC

>  <EC50>
1000 to 10000 nM

$$$$
>  <compound>
CCCC[C@@H](CCOC)Nc1nc(N)nc(C)c1Cc1cc(Cc2nn[nH]n2)ccc1OC

>  <EC50>
< 100 nM

$$$$
>  <compound>
CCCC[C@@H](CC(=O)O)Nc1nc(N)nc(C)c1Cc1ccccc1OC

>  <EC50>
100 to 1000 nM

$$$$

Requested field: EC50. Item: CCCCNc1nc(N)nc(C)c1Cc1cc(C2(c3nn[nH]n3)CC2)ccc1OC 100 to 1000 nM

Quick one: EC50 for CCCCNc1nc(N)nc(C)c1Cc1cc(S(=O)(=O)O)ccc1OC ? < 100 nM
